Molecular target: GIPC2, Q8TF65
Sequence (Q8TF65 112-203): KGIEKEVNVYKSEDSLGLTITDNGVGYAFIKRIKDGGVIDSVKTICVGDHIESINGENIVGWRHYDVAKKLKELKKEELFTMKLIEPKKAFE
Assay: holdup assay
Design: key: below the threshold = too weak to quantify, mostly under pKd 3.1 to 4
Conditions: plain residues with an end cap or a label only (N-terminal biotin on a linker: ttds)
ENDPOINT: pKd

Query: // pKd lookup, key: FHPLGADSQV [SLC2A1, P11166]
Result: 3.5

Query: Same thing, different binder: VDFPPKESSL [ACVR2A, P27037]
Result: below the threshold

Query: Same thing, different binder: RLQRRRETQV [HPV18-E6, P06463]
Result: below the threshold

Query: Same thing, different binder: NDPAWDETNL [ARHGEF7, Q14155]
Result: 3.61
